Test system: MDA-MB-468 breast
experiment: NCI tumour cell line growth inhibition, 48 h
attribute measured: TGI

IN: Fill in reported TGI for this entry: OC(c1cc2cc(Cl)c(Cl)cc2c2cc(C(F)(F)F)ccc12)C1CCCCN1 (centres undefined)
OUT: 2.94 µM

IN: Look up and state reported TGI for COC(=O)c1nc(-c2ccccc2)oc1S(=O)(=O)n1nc(C)cc1N
OUT: 16.9 µM

IN: Quickly give me recorded TGI for COc1cc(/C=C/C(=O)c2nnn(-c3ccc(Cl)cc3)c2C)cc(OC)c1OC
OUT: > 100 µM

IN: Fill in reported TGI for this entry: CC(C)=CCC/C(C)=C/CC/C(C)=C/CC/C=C(\C)CC/C=C(\C)CCC(=O)Nc1ccn(C2OC(CO)C(O)C2(F)F)c(=O)n1 (centres undefined)
OUT: 35.8 µM

IN: Specify TGI for CCN(Cc1ccc(Cl)s1)c1ccc(CO)c(Cl)c1 and stop.
OUT: 0.0526 µM

IN: Give the measured TGI for CCOP(=O)(OCC)OC[C@]12CC[C@@H](C)[C@H](C)C1C1=CC[C@@H]3[C@@]4(C)CCCNC(C)(C)[C@@H]4CC[C@@]3(C)[C@]1(C)CC2 (some centres undefined)
OUT: 2.91 µM

IN: Complete the entry with TGI for O=C(Oc1cccnc1)c1ccsc1Nc1ccnc(C(F)(F)F)c1
OUT: 4.4 µM

IN: Look up and report measured TGI for this entry: COc1ccc(OC)c(Cn2cc3c(c2)-c2oncc2CC3)c1
OUT: 4.37 µM

IN: Entry COc1ccc(-c2oc3cc(O)cc(O)c3c(=O)c2OC)cc1O needs its TGI filled in; supply it.
OUT: 3.45 µM
